target: Rev-Erb alpha (Homo sapiens); assay: M2H (mammalian two-hybrid) cellular activation assay of Rev-Erb alpha; format: cell-based; conditions: M2H assay, HEK293 cells, Gal4-Rev-Erb alpha / VP16-NCoR, luciferase reporter
Sequence (P20393 284-614 limits assumed): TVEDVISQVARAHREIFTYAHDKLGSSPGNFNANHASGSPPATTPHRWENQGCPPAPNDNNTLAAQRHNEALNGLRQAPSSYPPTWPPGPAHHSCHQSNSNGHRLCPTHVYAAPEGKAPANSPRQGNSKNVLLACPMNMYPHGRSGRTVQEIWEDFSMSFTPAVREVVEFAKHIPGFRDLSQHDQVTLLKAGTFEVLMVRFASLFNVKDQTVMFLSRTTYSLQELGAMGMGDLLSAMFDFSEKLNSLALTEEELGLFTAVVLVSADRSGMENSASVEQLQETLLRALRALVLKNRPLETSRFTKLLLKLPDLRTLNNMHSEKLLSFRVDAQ
Where a name gives a salt, the structure may show the parent alone.
EC50: recorded values

Param item = Clc1nnc2ccc(Oc3ccccc3-c3cccnc3)nn12 [Cpd.4-98, hydrochloride] ; retrieve measured EC50.
> 6000 nM

Param item = COc1ncccc1-c1ccc(C(F)(F)F)cc1Oc1nn2c(Cl)nnc2cc1C ; retrieve measured EC50.
1000 to 6000 nM

Param item = Cc1cc2nnc(Cl)n2nc1Oc1c(-c2cncnc2)ccc(C(F)(F)F)c1F ; retrieve measured EC50.
1000 to 6000 nM

Param item = CC(C)CCNc1ccc(-c2ccccc2)c(Oc2ccc3nnc(Cl)n3n2)c1 ; retrieve measured EC50.
100 to 1000 nM

Param item = COc1ncc(-c2ccc(C(F)(F)F)cc2Oc2cc(C)c3nnc(Cl)n3n2)cn1 ; retrieve measured EC50.
100 to 1000 nM
